// reported Ret for each item listed
Organism: Rattus norvegicus
run description: Open TG-GATES - Regimen: Daily Repeat
Assay type: toxicity, organism-based, Sprague-Dawley
Set-up: regimen Daily Repeat, gender Male, age 6 weeks
stated conditions: in vivo, po, 0 mg/kg, […], tissue Blood, route gavage, dose level Control, time 28 day
Output spec: scalar in %, unitless text.

Use the examples below as a reference point.
compound	result unit	value observed
COc1ccc2[nH]c([S+]([O-])Cc3ncc(C)c(OC)c3C)nc2c1 (stereo not drawn) [OMEPRAZOLE]	%	2.2
NNC(=O)c1ccncc1 [ISONIAZID]	%	2.5
CC1=C(/C=C/C(C)=C/C=C/C(C)=C/CO)C(C)(C)CCC1 [RETINOL]	%	2.6

Task item: Please list Ret recorded for the compound CCOc1ccc(NC(=O)CC(C)O)cc1 (stereo not drawn) [BUCETIN]
Reply: 2.7

Task item: Please list Ret recorded for the compound COC1=CC(=O)C[C@@H](C)[C@]12Oc1c(Cl)c(OC)cc(OC)c1C2=O [GRISEOFULVIN]
Reply: 2.7

Task item: Please list Ret recorded for the compound CN1C(=O)CN=C(c2ccccc2)c2cc(Cl)ccc21 [DIAZEPAM]
Reply: 2.2

Task item: Please list Ret recorded for the compound CCCNC(=O)NS(=O)(=O)c1ccc(Cl)cc1 [CHLORPROPAMIDE]
Reply: 2.2

Task item: Please list Ret recorded for the compound CN(C)CCCN1c2ccccc2CCc2ccccc21 [IMIPRAMINE]
Reply: 2.4

Task item: Please list Ret recorded for the compound O=C(CCCN1CCC(O)(c2ccc(Cl)cc2)CC1)c1ccc(F)cc1 [HALOPERIDOL]
Reply: 3

Task item: Please list Ret recorded for the compound CCOC(=O)CCC(=O)O[C@H]1[C@H](O[C@@H]2[C@@H](C)[C@H](O[C@H]3C[C@@](C)(OC)[C@@H](O)[C@H](C)O3)[C@@H](C)C(=O)O[C@H](CC)[C@@](C)(O)[C@H](O)[C@@H](C)C(=O)[C@H](C)C[C@@]2(C)O)O[C@H](C)C[C@@H]1N(C)C [ERYTHROMYCIN ETHYLSUCCINATE]
Reply: 2.7

Task item: Please list Ret recorded for the compound "CN(C)CCN(Cc1cccs1)c1ccccn1"
Reply: 2.9

Task item: Please list Ret recorded for the compound NC(N)=Nc1nc(CSCCC(N)=NS(N)(=O)=O)cs1 [FAMOTIDINE]
Reply: 2.3

Task item: Please list Ret recorded for the compound CC(C)OC(=O)C(C)(C)Oc1ccc(C(=O)c2ccc(Cl)cc2)cc1 [FENOFIBRATE]
Reply: 2.5

###

// reported IP for each item listed
Species on record: Rattus norvegicus
run description: Open TG-GATES - Regimen: Single
Assay type: toxicity, organism-based, Sprague-Dawley
Design: regimen Single, gender Male, age 6 weeks
stated conditions: in vivo, po, 100 mg/kg, 3 h, tissue Plasma, route gavage, dose level Low
Output spec: scalar in mg/dL, unitless text.

compound	IP (mg/dL)
CCOC(=O)CCC(=O)O[C@H]1[C@H](O[C@@H]2[C@@H](C)[C@H](O[C@H]3C[C@@](C)(OC)[C@@H](O)[C@H](C)O3)[C@@H](C)C(=O)O[C@H](CC)[C@@](C)(O)[C@H](O)[C@@H](C)C(=O)[C@H](C)C[C@@]2(C)O)O[C@H](C)C[C@@H]1N(C)C [ERYTHROMYCIN ETHYLSUCCINATE]	9.1
NC(N)=Nc1nc(CSCCC(N)=NS(N)(=O)=O)cs1 [FAMOTIDINE]	9.2
COC1=CC(=O)C[C@@H](C)[C@]12Oc1c(Cl)c(OC)cc(OC)c1C2=O [GRISEOFULVIN]	8.8

Here's the next entry for you.
Task item: Please list IP recorded for the compound COc1ccc2[nH]c([S+]([O-])Cc3ncc(C)c(OC)c3C)nc2c1 (centres undefined) [OMEPRAZOLE]
Reply: 9.1
